test system: PP2A-B55α; assay: Single alanine mutational scan, YFP-tagged interactors immunoprecipitated from HeLa cells, Western blot; type: binding, human; conditions: single alanine mutant of YFP-tagged CDCA4
Listing of entries alongside the reported Experimental % binding.
readout: Experimental % binding (%)

[
  {
    "molecule": "CDCA4 I62: CDCA4, I62 to alanine (protein, UniProt Q9BXL8 1-241, looked up, variant I62A) Cell division …: MFARGLKRKCVGHEEDVEGALAGLKTVSSYSLQRQSLLDMSLVKLQLCHMLVEPNLCRSVLAANTVRQIQEEMTQDGTWRTVAPQAAERAPLDRLVSTEILCRAAWGQEGAHPAPGLGDGHTQGPVSDLCPVTSAQAPRHLQSSAWEMDGPRENRGSFHKSLDQIFETLETKNPSCMEELFSDVDSPYYDLDTVLTGMMGGARPGPCEGLEGLAPATPGPSSSCKSDLGELDHVVEILVET",
    "readout": "Experimental % binding",
    "resultUnits": "%",
    "endpointValue": 7
  },
  {
    "molecule": "CDCA4 L56: CDCA4, L56 to alanine (protein, UniProt Q9BXL8 1-241, looked up, variant L56A) Cell division …: MFARGLKRKCVGHEEDVEGALAGLKTVSSYSLQRQSLLDMSLVKLQLCHMLVEPNACRSVLIANTVRQIQEEMTQDGTWRTVAPQAAERAPLDRLVSTEILCRAAWGQEGAHPAPGLGDGHTQGPVSDLCPVTSAQAPRHLQSSAWEMDGPRENRGSFHKSLDQIFETLETKNPSCMEELFSDVDSPYYDLDTVLTGMMGGARPGPCEGLEGLAPATPGPSSSCKSDLGELDHVVEILVET",
    "readout": "Experimental % binding",
    "resultUnits": "%",
    "endpointValue": 42
  },
  {
    "molecule": "CDCA4 L45: CDCA4, L45 to alanine (protein, UniProt Q9BXL8 1-241, looked up, variant L45A) Cell division …: MFARGLKRKCVGHEEDVEGALAGLKTVSSYSLQRQSLLDMSLVKAQLCHMLVEPNLCRSVLIANTVRQIQEEMTQDGTWRTVAPQAAERAPLDRLVSTEILCRAAWGQEGAHPAPGLGDGHTQGPVSDLCPVTSAQAPRHLQSSAWEMDGPRENRGSFHKSLDQIFETLETKNPSCMEELFSDVDSPYYDLDTVLTGMMGGARPGPCEGLEGLAPATPGPSSSCKSDLGELDHVVEILVET",
    "readout": "Experimental % binding",
    "resultUnits": "%",
    "endpointValue": 86
  },
  {
    "molecule": "CDCA4 N64: CDCA4, N64 to alanine (protein, UniProt Q9BXL8 1-241, looked up, variant N64A) Cell division …: MFARGLKRKCVGHEEDVEGALAGLKTVSSYSLQRQSLLDMSLVKLQLCHMLVEPNLCRSVLIAATVRQIQEEMTQDGTWRTVAPQAAERAPLDRLVSTEILCRAAWGQEGAHPAPGLGDGHTQGPVSDLCPVTSAQAPRHLQSSAWEMDGPRENRGSFHKSLDQIFETLETKNPSCMEELFSDVDSPYYDLDTVLTGMMGGARPGPCEGLEGLAPATPGPSSSCKSDLGELDHVVEILVET",
    "readout": "Experimental % binding",
    "resultUnits": "%",
    "endpointValue": 57
  },
  {
    "molecule": "CDCA4 S59: CDCA4, S59 to alanine (protein, UniProt Q9BXL8 1-241, looked up, variant S59A) Cell division …: MFARGLKRKCVGHEEDVEGALAGLKTVSSYSLQRQSLLDMSLVKLQLCHMLVEPNLCRAVLIANTVRQIQEEMTQDGTWRTVAPQAAERAPLDRLVSTEILCRAAWGQEGAHPAPGLGDGHTQGPVSDLCPVTSAQAPRHLQSSAWEMDGPRENRGSFHKSLDQIFETLETKNPSCMEELFSDVDSPYYDLDTVLTGMMGGARPGPCEGLEGLAPATPGPSSSCKSDLGELDHVVEILVET",
    "readout": "Experimental % binding",
    "resultUnits": "%",
    "endpointValue": 64
  }
]
